# assayed target: Ubiquitin carboxyl-terminal hydrolase 19 (Homo sapiens)
# method: Inhibition of C-terminal His6-tagged recombinant human USP19 using iso-peptide ubiquitin-Lys-TAMRA as substrate incubated for 30 mins and measured after 90 mins by fluorescent polarization assay
pIC50: −log10 of the molar value.
recorded endpoint: pIC50

Use these answered entries as a reference point.
>>> print(df.to_string())
                                   molecule  recorded_endpoint  result
0  C[C@H](CC1CCCCC1)C(=O)N1CC[C@@](O)(Cn2cc(C(=O)N(C)C)c(-c3ccccc3)cc2=O)C(C)(C)C1              pIC50  > 6.30
1  C[C@H](CC1CCCCC1)C(=O)N1CC[C@@](O)(Cn2cc(C(=O)N(C)C)c(C3CC3)cc2=O)C2(CCCC2)C1              pIC50  > 6.30
2  C[C@H](CC1CCCCC1)C(=O)N1CCC(O)(Cn2cc(C(=O)N(C)C)c(-c3cccc(CO)c3)cc2=O)C2(CCCC2)C1 (some centres undefined)              pIC50  > 6.30

# evaluate next
// query Please look up its pIC50: C[C@H](CC(F)(F)F)C(=O)N1CC[C@@](O)(Cn2cc(C(=O)N3CCNCC3)c(-c3ccccc3)cc2=O)C2(CCCC2)C1
// result > 6.30

* * *

# assayed target: Ubiquitin carboxyl-terminal hydrolase 19 (Homo sapiens, UniProt O94966)
# Sequence (O94966 whole entry): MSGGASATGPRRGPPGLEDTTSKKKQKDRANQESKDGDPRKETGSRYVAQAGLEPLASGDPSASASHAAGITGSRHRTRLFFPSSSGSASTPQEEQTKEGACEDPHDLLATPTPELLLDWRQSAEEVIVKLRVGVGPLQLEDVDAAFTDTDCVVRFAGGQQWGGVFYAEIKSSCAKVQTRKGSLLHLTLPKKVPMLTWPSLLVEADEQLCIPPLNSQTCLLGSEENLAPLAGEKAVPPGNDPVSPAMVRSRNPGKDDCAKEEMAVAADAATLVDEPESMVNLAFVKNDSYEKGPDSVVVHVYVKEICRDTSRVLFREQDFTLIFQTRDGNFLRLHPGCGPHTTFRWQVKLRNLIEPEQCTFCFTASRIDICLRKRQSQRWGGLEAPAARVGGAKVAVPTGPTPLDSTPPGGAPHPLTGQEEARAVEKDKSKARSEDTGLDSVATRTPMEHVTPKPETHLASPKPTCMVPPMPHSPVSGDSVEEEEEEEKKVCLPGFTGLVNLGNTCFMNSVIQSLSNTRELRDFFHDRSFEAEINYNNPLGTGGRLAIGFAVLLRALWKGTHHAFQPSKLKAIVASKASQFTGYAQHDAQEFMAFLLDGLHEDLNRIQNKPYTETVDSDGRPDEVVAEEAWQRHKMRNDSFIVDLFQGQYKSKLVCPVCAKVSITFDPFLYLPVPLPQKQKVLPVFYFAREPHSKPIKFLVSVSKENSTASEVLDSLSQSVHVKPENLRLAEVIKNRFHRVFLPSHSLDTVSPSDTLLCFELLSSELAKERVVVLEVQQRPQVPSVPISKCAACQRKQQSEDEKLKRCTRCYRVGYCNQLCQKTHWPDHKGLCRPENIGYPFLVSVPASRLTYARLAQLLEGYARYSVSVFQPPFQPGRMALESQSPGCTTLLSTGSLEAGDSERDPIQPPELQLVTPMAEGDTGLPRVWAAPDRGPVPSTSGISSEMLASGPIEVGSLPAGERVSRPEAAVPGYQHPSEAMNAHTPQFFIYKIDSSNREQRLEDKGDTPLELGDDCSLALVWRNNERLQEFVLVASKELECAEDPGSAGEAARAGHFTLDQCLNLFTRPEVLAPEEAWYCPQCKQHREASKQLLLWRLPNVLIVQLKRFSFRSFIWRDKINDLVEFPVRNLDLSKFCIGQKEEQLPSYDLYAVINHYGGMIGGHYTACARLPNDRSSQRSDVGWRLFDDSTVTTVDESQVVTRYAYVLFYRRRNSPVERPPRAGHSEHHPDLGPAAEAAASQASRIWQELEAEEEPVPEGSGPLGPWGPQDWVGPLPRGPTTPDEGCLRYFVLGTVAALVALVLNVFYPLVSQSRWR
# method: Inhibition of C-terminal His6-tagged recombinant human USP19 using iso-peptide ubiquitin-Lys-TAMRA as substrate incubated for 30 mins and measured after 90 mins by fluorescent polarization assay
pIC50: −log10 of the molar value.
recorded endpoint: pIC50

>>> print(df.to_string())
                                   compound  result
0  CC(=O)N1CCN(C(=O)c2cn(CC3(O)CCN(C(=O)[C@H](C)CC4CCCCC4)CC3(C)C)c(=O)cc2-c2ccccc2)CC1 (stereo partly specified)  > 6.30
1  CC(OC1CCCCC1)C(=O)N1CCC(O)(Cn2cnc(-c3ccccc3F)cc2=O)C(C)(C)C1 (stereo unspecified)  ≤ 4.30
2  CCOC(=O)c1cn(C[C@]2(O)CCN(C(=O)[C@H](C)CC3CCCCC3)CC23CCCC3)c(=O)cc1-c1ccccc1  > 6.30
3  C[C@H](CC1CCCCC1)C(=O)N1CCC(O)(Cn2cnc(-c3ccccc3)cc2=O)C(C)(C)C1 (stereo partly specified)  > 6.30
4  C[C@H](CC1CCCCC1)C(=O)N1CC[C@@](O)(Cn2cc(C(=O)N3CCNCC3)c(-c3ccccc3)cc2=O)C2(CCCC2)C1  > 6.30

// query Quick check: pIC50 on Ubiquitin carboxyl-terminal hydrolase 19 (Homo sapiens, UniProt O94966), item CN(C)C(=O)c1cn(CC2(O)CCN(C(=O)[C@@H]3C[C@@H]3c3ccccc3)CC23CCCC3)c(=O)cc1-c1ccccc1 (stereo partly specified) ?
// result > 6.30

// query Quick check: pIC50 on Ubiquitin carboxyl-terminal hydrolase 19 (Homo sapiens, UniProt O94966), item C[C@H](CC(F)(F)F)C(=O)N1CC[C@@](O)(Cn2cc(C(=O)N3CCOCC3)c(-c3ccccc3)cc2=O)C2(CCCC2)C1 ?
// result > 6.30

// query Quick check: pIC50 on Ubiquitin carboxyl-terminal hydrolase 19 (Homo sapiens, UniProt O94966), item C[C@H](CC(F)(F)F)C(=O)N1CC[C@@](O)(Cn2cc(C(=O)N(C)C)c(-c3ccccc3)cc2=O)C2(CCCC2)C1 ?
// result > 6.30

// query Quick check: pIC50 on Ubiquitin carboxyl-terminal hydrolase 19 (Homo sapiens, UniProt O94966), item C[C@H](CC1CCCCC1)C(=O)N1CCC(O)(Cn2cnc(-c3ccsc3)cc2=O)C(C)(C)C1 (stereo partly specified) ?
// result > 6.30

// query Quick check: pIC50 on Ubiquitin carboxyl-terminal hydrolase 19 (Homo sapiens, UniProt O94966), item CC(C)CC(C)C(=O)N1CCC(O)(Cn2cc(C(=O)N(C)C)c(-c3ccccc3)cc2=O)C2(CCCC2)C1 (stereo unspecified) ?
// result > 6.30

// query Quick check: pIC50 on Ubiquitin carboxyl-terminal hydrolase 19 (Homo sapiens, UniProt O94966), item C[C@H](CC1CCC1)C(=O)N1CC[C@@](O)(Cn2cc(C(=O)N3CCNCC3)c(-c3ccccc3F)cc2=O)C2(CCCC2)C1 ?
// result > 6.30

// query Quick check: pIC50 on Ubiquitin carboxyl-terminal hydrolase 19 (Homo sapiens, UniProt O94966), item C[C@H](CC(F)(F)F)C(=O)N1CC[C@@](O)(Cn2cnc(-c3ccccc3)cc2=O)C2(CCCC2)C1 ?
// result > 6.30

// query Quick check: pIC50 on Ubiquitin carboxyl-terminal hydrolase 19 (Homo sapiens, UniProt O94966), item CC(Cc1ccccc1)C(=O)N1CCC(O)(Cn2cnc(-c3ccccc3F)cc2=O)CC1 (racemic) ?
// result ≤ 5.30

// query Quick check: pIC50 on Ubiquitin carboxyl-terminal hydrolase 19 (Homo sapiens, UniProt O94966), item C[C@H](CC1CC1)C(=O)N1CCC(O)(Cn2cc(C(=O)N(C)C)c(-c3ccccc3)cc2=O)C2(CCCC2)C1 (stereo partly specified) ?
// result > 6.30

// query Quick check: pIC50 on Ubiquitin carboxyl-terminal hydrolase 19 (Homo sapiens, UniProt O94966), item C[C@H](CC1CCCCC1)C(=O)N1CCC(O)(Cn2cc(C(=O)N(C)C)c(N(C)C)cc2=O)C2(CCCC2)C1 (stereo partly specified) ?
// result > 6.30

// query Quick check: pIC50 on Ubiquitin carboxyl-terminal hydrolase 19 (Homo sapiens, UniProt O94966), item O=C(c1cn(C[C@]2(O)CCN(C(=O)C(CC(F)(F)F)CC(F)(F)F)CC23CCCC3)c(=O)cc1-c1ccccc1)N1CCNCC1 ?
// result ≥ 5.30

// query Quick check: pIC50 on Ubiquitin carboxyl-terminal hydrolase 19 (Homo sapiens, UniProt O94966), item CN(C)C(=O)c1cn(C[C@]2(O)CCN(C(=O)[C@H](CO)CC3CCC3)CC2(C)C)c(=O)cc1-c1ccccc1 ?
// result > 6.30

// query Quick check: pIC50 on Ubiquitin carboxyl-terminal hydrolase 19 (Homo sapiens, UniProt O94966), item C[C@H](CC1CCCCC1)C(=O)N1CCC(O)(Cn2cc(C(=O)N3CCN(C)CC3)c(-c3ccccc3)cc2=O)C(C)(C)C1 (stereo partly specified) ?
// result > 6.30

// query Quick check: pIC50 on Ubiquitin carboxyl-terminal hydrolase 19 (Homo sapiens, UniProt O94966), item CN(C)C(=O)c1cn(C[C@]2(O)CCN(C(=O)[C@H](CO)CC3CCCCC3)CC2(C)C)c(=O)cc1-c1ccccc1 ?
// result > 6.30

// query Quick check: pIC50 on Ubiquitin carboxyl-terminal hydrolase 19 (Homo sapiens, UniProt O94966), item C[C@H](CC1CCCCC1)C(=O)N1CC[C@@](O)(Cn2cc(C(=O)N3CCOCC3)c(-c3ccccc3)cc2=O)C2(CCCC2)C1 ?
// result > 6.30

// query Quick check: pIC50 on Ubiquitin carboxyl-terminal hydrolase 19 (Homo sapiens, UniProt O94966), item C[C@H](CC1CCCCC1)C(=O)N1CCC(O)(Cn2cnc(-c3ccc(CO)cc3)cc2=O)C(C)(C)C1 (stereo partly specified) ?
// result > 6.30

// query Quick check: pIC50 on Ubiquitin carboxyl-terminal hydrolase 19 (Homo sapiens, UniProt O94966), item O=C(c1cn(C[C@]2(O)CCN(C(=O)[C@H](CO)CC(F)(F)F)CC23CCCC3)c(=O)cc1-c1ccccc1)N1CCNCC1 ?
// result > 6.30

// query Quick check: pIC50 on Ubiquitin carboxyl-terminal hydrolase 19 (Homo sapiens, UniProt O94966), item C[C@H](CC1CCCCC1)C(=O)N1CC[C@@](O)(Cn2cc(C(=O)N(C)C)c(-c3ccccc3)cc2=O)C2(CCCC2)C1 ?
// result > 6.30

// query Quick check: pIC50 on Ubiquitin carboxyl-terminal hydrolase 19 (Homo sapiens, UniProt O94966), item C[C@H](CC1CCCCC1)C(=O)N1CC[C@@](O)(Cn2cc(C(=O)N3CCNC[C@H]3CO)c(-c3ccccc3)cc2=O)C(C)(C)C1 ?
// result > 6.30

// query Quick check: pIC50 on Ubiquitin carboxyl-terminal hydrolase 19 (Homo sapiens, UniProt O94966), item C[C@H](CC1CCCCC1)C(=O)N1CCC(O)(Cn2cnc(-c3ccccc3CN)cc2=O)C(C)(C)C1 (stereo partly specified) ?
// result > 6.30

// query Quick check: pIC50 on Ubiquitin carboxyl-terminal hydrolase 19 (Homo sapiens, UniProt O94966), item O=C(C1CCNC1c1ccccc1)N1CC[C@@](O)(Cn2cnc(-c3ccccc3)cc2=O)C2(CCCC2)C1 (stereo partly specified) ?
// result > 6.30

// query Quick check: pIC50 on Ubiquitin carboxyl-terminal hydrolase 19 (Homo sapiens, UniProt O94966), item O=C(c1cn(C[C@]2(O)CCN(C(=O)[C@H](CO)CC(F)(F)F)CC23CCCC3)c(=O)cc1-c1ccccc1)N1CCOCC1 ?
// result > 6.30

// query Quick check: pIC50 on Ubiquitin carboxyl-terminal hydrolase 19 (Homo sapiens, UniProt O94966), item CC(CN1CCCCC1)C(=O)N1CCC(O)(Cn2cc(C(=O)N(C)C)c(-c3ccccc3)cc2=O)C2(CCCC2)C1 (stereo unspecified) ?
// result ≤ 5.30

// query Quick check: pIC50 on Ubiquitin carboxyl-terminal hydrolase 19 (Homo sapiens, UniProt O94966), item C[C@H](CC(C)(F)F)C(=O)N1CC[C@@](O)(Cn2cnc(-c3ccccc3)cc2=O)C2(CCCC2)C1 ?
// result > 6.30

// query Quick check: pIC50 on Ubiquitin carboxyl-terminal hydrolase 19 (Homo sapiens, UniProt O94966), item C[C@H](CC1CCC1)C(=O)N1CC[C@@](O)(Cn2cc(C(=O)N3CCNCC3)c(-c3ccccc3)cc2=O)C2(CCCC2)C1 ?
// result > 6.30

// query Quick check: pIC50 on Ubiquitin carboxyl-terminal hydrolase 19 (Homo sapiens, UniProt O94966), item CC(n1cnc(-c2ccccc2)cc1=O)C1(O)CCN(C(=O)[C@H](C)CC2CCCCC2)CC1 (stereo partly specified) ?
// result ≥ 5.30
